Reference source: patent US20250059220A1

observable: IC50 (µM)
Your answer is read as µM, so omit the unit and give the number.

Look up and report measured IC50 (human PTPN1 (1-435) (Homo sapiens (Human), UniProt P18031)) for the following compound: CS(=O)(=O)CCCOc1cc(C(=O)NCCC#N)cc2c(Br)c(C(F)(F)P(=O)(O)O)sc12 [Compound 330]
0.0092

Look up and report measured IC50 (human PTPN1 (1-435) (Homo sapiens (Human), UniProt P18031)) for the following compound: O=C(Nc1ccc(F)cc1)c1ccc2sc(C(F)(F)P(=O)(O)O)c(Br)c2c1 [Compound 25]
2.57

Look up and report measured IC50 (human PTPN1 (1-435) (Homo sapiens (Human), UniProt P18031)) for the following compound: CC(Cn1ccc2ccccc21)NC(=O)c1ccc2sc(C(F)(F)P(=O)(O)O)c(Br)c2c1 (centres unmarked) [Compound 81]
0.115

Look up and report measured IC50 (human PTPN1 (1-435) (Homo sapiens (Human), UniProt P18031)) for the following compound: N#CC1(c2ccc(NC(=O)c3ccc4sc(C(F)(F)P(=O)(O)O)c(Br)c4c3)cc2)CCCCC1 [Compound 21]
1.41

Look up and report measured IC50 (human PTPN1 (1-435) (Homo sapiens (Human), UniProt P18031)) for the following compound: O=C(NC(CO)c1ccccn1)c1ccc2sc(C(F)(F)P(=O)(O)O)c(Br)c2c1 (centres unmarked) [Compound 192]
4.59

Look up and report measured IC50 (human PTPN1 (1-435) (Homo sapiens (Human), UniProt P18031)) for the following compound: Cc1c(C(F)(F)P(=O)(O)O)sc2c(OCc3ccc(S(C)(=O)=O)cc3)cc(C(N)=O)cc12 [Compound 438]
0.0274

Look up and report measured IC50 (human PTPN1 (1-435) (Homo sapiens (Human), UniProt P18031)) for the following compound: Cc1ncc(-c2cc(OCCCC(F)(F)F)c3sc(C(F)(F)P(=O)(O)O)c(Br)c3c2)[nH]1 [Compound 452]
0.0719

Look up and report measured IC50 (human PTPN1 (1-435) (Homo sapiens (Human), UniProt P18031)) for the following compound: O=C(Nc1cccc(F)c1)c1ccc2sc(C(F)(F)P(=O)(O)O)c(Br)c2c1 [Compound 33]
2.12
